SYSTEM_TESTED: Bile salt export pump (Homo sapiens, UniProt O95342, E297G)
Sequence (O95342 whole entry E297G): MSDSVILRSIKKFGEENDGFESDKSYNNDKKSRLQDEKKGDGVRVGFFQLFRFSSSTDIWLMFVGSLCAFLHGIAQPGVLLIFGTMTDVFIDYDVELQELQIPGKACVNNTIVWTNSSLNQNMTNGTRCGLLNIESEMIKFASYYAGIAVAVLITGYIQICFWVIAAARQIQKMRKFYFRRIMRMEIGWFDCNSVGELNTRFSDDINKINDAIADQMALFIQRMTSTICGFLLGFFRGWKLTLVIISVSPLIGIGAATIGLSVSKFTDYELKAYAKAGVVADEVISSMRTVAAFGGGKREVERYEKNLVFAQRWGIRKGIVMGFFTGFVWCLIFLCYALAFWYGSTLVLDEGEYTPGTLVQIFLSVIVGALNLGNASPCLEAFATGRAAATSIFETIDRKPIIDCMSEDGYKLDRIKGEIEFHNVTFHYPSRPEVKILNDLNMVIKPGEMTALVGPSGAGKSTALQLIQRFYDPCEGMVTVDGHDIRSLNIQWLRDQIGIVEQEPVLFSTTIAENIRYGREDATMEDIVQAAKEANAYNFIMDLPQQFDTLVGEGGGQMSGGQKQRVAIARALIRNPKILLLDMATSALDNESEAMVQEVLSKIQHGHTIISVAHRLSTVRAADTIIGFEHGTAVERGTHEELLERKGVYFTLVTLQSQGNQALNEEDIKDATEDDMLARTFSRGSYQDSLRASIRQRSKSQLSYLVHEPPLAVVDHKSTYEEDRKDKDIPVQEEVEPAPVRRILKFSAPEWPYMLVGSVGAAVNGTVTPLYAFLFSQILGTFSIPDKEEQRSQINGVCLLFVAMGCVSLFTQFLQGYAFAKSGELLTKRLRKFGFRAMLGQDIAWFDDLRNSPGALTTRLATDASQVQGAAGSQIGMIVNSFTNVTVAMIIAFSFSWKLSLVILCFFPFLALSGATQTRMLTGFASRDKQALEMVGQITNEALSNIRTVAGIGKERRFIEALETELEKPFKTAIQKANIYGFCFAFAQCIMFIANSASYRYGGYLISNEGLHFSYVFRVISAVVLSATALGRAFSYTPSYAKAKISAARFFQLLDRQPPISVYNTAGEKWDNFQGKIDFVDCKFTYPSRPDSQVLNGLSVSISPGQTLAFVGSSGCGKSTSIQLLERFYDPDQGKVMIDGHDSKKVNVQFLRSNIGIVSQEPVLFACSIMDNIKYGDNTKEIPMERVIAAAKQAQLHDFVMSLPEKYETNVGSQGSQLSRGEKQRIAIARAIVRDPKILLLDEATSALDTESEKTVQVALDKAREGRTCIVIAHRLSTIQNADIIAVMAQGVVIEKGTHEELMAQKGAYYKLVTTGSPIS
TEST_METHOD_NOTES: Enhancement of human BSEP E297G mutant trafficking to cell membrane in MDCK2 cells co-expressing NTCP assessed as accumulation of [3H]taurocholate at 10 uM preincubated for 24 hrs prior incubation with [3H]taurocholate measured after 2 hrs by liquid scintillation counting
CONDITION_INFO: mdck-ii
# Activity values compiled below
Just the number in %, nothing appended.

Field: example entries. Status: answers known.
SUBSTANCE_SMILES: CC(C)c1onc(-c2c(Cl)cccc2Cl)c1COc1ccc(N(Cc2ccccc2)C(=O)c2cccc(C(=O)O)c2)c(Cl)c1
SYSTEM_TESTED: Bile salt export pump (Homo sapiens, UniProt O95342, E297G)
Activity (%): 50

SUBSTANCE_SMILES: CC(C)c1onc(-c2c(Cl)cccc2Cl)c1COc1ccc(N(C)C(=O)c2cccc(C(=O)O)c2)c(Cl)c1
SYSTEM_TESTED: Bile salt export pump (Homo sapiens, UniProt O95342, E297G)
Activity (%): 60

SUBSTANCE_SMILES: CC(C)c1onc(-c2c(Cl)cccc2Cl)c1COc1ccc(C(=O)N(Cc2ccccc2)c2cccc(C(=O)O)c2)c(Cl)c1
SYSTEM_TESTED: Bile salt export pump (Homo sapiens, UniProt O95342, E297G)
Activity (%): 31

SUBSTANCE_SMILES: CC(C)c1onc(-c2c(Cl)cccc2Cl)c1COc1ccc(NC(=O)c2cccc(C(=O)O)c2)c(Cl)c1
SYSTEM_TESTED: Bile salt export pump (Homo sapiens, UniProt O95342, E297G)
Activity (%): 75

SUBSTANCE_SMILES: C[C@H](CCC(=O)O)[C@H]1CC[C@H]2[C@@H]3[C@H](O)C[C@@H]4C[C@H](O)CC[C@]4(C)[C@H]3CC[C@]12C
SYSTEM_TESTED: Bile salt export pump (Homo sapiens, UniProt O95342, E297G)
Activity (%): 50

Query: Value lookup for Activity; key = CCCCN(C(=O)c1cccc(C(=O)O)c1)c1ccc(OCc2c(-c3c(Cl)cccc3Cl)noc2C(C)C)cc1Cl
Result: 42

Query: Give its Activity value. Item: CC(C)c1onc(-c2c(Cl)cccc2Cl)c1COc1ccc(N(C(=O)c2cccc(C(=O)O)c2)c2cccc3ccccc23)c(Cl)c1
Result: 59

Query: Given CC(C)c1onc(-c2c(Cl)cccc2Cl)c1COc1ccc(/C=C/c2cccc(C(=O)O)c2)c(Cl)c1 , state its recorded Activity.
Result: 33
